assay: Concentration in mouse serum after oral administration; type: in vivo, male ICR mice; settings: mouse serum, dose not given
experimental-endpoint: Cmax (ng/mL)
Your answer should be a plain number; it is taken to be in ng/mL.

CC[C@H]1OC(=O)[C@H](C)C(=O)[C@H](C)[C@@H](O[C@@H]2O[C@H](C)C[C@H](N(C)C)[C@H]2O)[C@](C)(OC)C[C@@H](C)C(=O)[C@H](C)[C@H]2NC(=O)O[C@@]21C :: 1170

Request: Could you share which Cmax value was measured for CC[C@H]1OC(=O)[C@H](C)[C@@H](O[C@H]2C[C@@](C)(OC)[C@@H](O)[C@H](C)O2)[C@H](C)[C@@H](O[C@@H]2O[C@H](C)C[C@H](N(C)C)[C@H]2O)[C@](C)(OC)C[C@@H](C)C(=O)[C@H](C)[C@@H](O)[C@]1(C)O ?
Response: 340

Request: Could you share which Cmax value was measured for CC[C@H]1OC(=O)[C@H](C)C(=O)[C@H](C)[C@@H](O[C@@H]2O[C@H](C)C[C@H](N(C)C)[C@H]2O)[C@](C)(OC)C[C@@H](C)C(=O)[C@H](C)[C@H]2OC(=O)O[C@@]21C ?
Response: 410
